These data points were gathered from PubChem BioAssay (NCI).

- Tested on: BT-549 breast
- assay: NCI-60 one-dose screen, 48 h (100 = growth as untreated, 0 = no growth, -100 = all killed)
- measurementSetup: 10 µM unless noted
The panel holds about 83,000 compounds, 20% with a hit somewhere; the sample as a whole holds those more often.
The entries below come with measured growth values attached.
Answer with a number only, understood to be in %.

[[record]]
molecule = "N#CCSc1nnc2n(Cc3ccccc3)c(=O)c3c4c(sc3n12)CCCC4"
measuredattribute = "growth"
valueunit = "%"
reported = 98.7

[[record]]
molecule = "Cn1c(=O)c2[nH]c(N/N=C/c3ccccc3Br)nc2n(C)c1=O"
measuredattribute = "growth"
valueunit = "%"
reported = 99

[[record]]
molecule = "O=C1c2cc(Cl)ccc2S(=O)(=O)c2c(NCCCNCCO)nc3ccccc3c21"
measuredattribute = "growth"
valueunit = "%"
reported = 21.7


Incoming: For CC(C)c1ccc(COCc2cc(CN3CCCC3)c(O)c3ncccc23)cc1 , what is its reported growth?
Outgoing: 13.1
